Biological target: PD-1/PD-L1 (Homo sapiens (Human))
Assay: PD-1/PD-L1 biochemical protein-protein interaction assay (ALPHA)
Details: 0.3 nM His tagged PD-L1, 2.5 nM biotinylated Fc-PD-1, 60 minutes at 25° C., read-out: IC50 PD-L1-PD1
Experimental: Binding of the protein pairs is measured using a bead based Amplified Luminescent Proximity Homogeneous Assay (ALPHA) platform. […] After an assay reaction time of 60 minutes at 25° C., binding was measured with addition of 20 μg/mL ALPHA assay acceptor beads (anti-His coated) and 20 µg/mL ALPHA assay donor beads (streptavidin coated). IC50 values were calculated from the fit of the dose-response curves to a four-parameter equation.
assay.metric: IC50 (nM)

Would you please look over these solved cases?
| molecule | study.system | data.value |
| --- | --- | --- |
| COc1nc(-c2cccc(-c3cccc(-c4cnc(CN5CC(c6ccccn6)C5)c(OC)n4)c3Cl)c2Cl)cnc1CNC[C@@H]1CCC(=O)N1 [compound 349] | PD-1/PD-L1 (Homo sapiens (Human)) | 0.389 |
| COc1nc(-c2cccc(-c3cccc(-c4cnc(CN5CCCC6(C5)NC(C)=NC6=O)c(OC)n4)c3Cl)c2Cl)cnc1CNC[C@@H]1CCC(=O)N1 (some centres unmarked) [compound 291] | PD-1/PD-L1 (Homo sapiens (Human)) | 0.216 |

P: CSc1nc(-c2cccc(-c3cccc(-c4cnc(CNC[C@@H]5CCC(=O)N5)c(SC)n4)c3Cl)c2Cl)cnc1CNC[C@@H]1CCC(=O)N1 [compound 91]
Q: COc1nc(-c2cccc(-c3cccc(-c4cnc(CN5CC6(C5)CN(C(C)=O)C6)c(OC)n4)c3Cl)c2Cl)ccc1CNC[C@@H]1CCC(=O)N1 [compound 632]
R: COc1nc(-c2cccc(-c3cccc(-c4cnc(CN5C[C@H]6CC(=O)N[C@H]6C5)c(OC)n4)c3Cl)c2Cl)cnc1CNC[C@@H]1CCC(=O)N1 [compound 312]
Arrange the 3 entries by IC50 so the values rise. State the ranking by listing the labels in the requested order.
Q, R, P
(Q: 0.172 nM, R: 0.295 nM, P: 0.978 nM)

###

target: PD-1/PD-L1 (Homo sapiens (Human)); assay: PD-1/PD-L1 biochemical protein-protein interaction assay (ALPHA); settings: 0.3 nM His tagged PD-L1, 2.5 nM biotinylated Fc-PD-1, 60 minutes at 25° C., read-out: IC50 PD-L1-PD1
pIC50: −log10 of the molar value.
assay.metric: pIC50

Solved entries:
| compound | data.value |
| --- | --- |
| COc1nc(-c2cccc(-c3cccc(-c4cnc(CN5CCC6(C5)NC(=O)N(C)C6=O)c(OC)n4)c3Cl)c2Cl)cnc1CNC[C@@H]1CCC(=O)N1 (stereo partly drawn) [compound 294] | 9.53 |
| COc1nc(-c2cccc(-c3cccc(-c4cnc(CN5CC(O)(CO)C5)c(OC)n4)c3Cl)c2Cl)cnc1CN1CC(O)(CO)C1 [compound 240] | 10.05 |
| COc1nc(-c2cccc(-c3cccc(-c4cnc(CNC[C@H]5CNC(=O)C5)c(OC)n4)c3Cl)c2Cl)cnc1CNC[C@H]1CNC(=O)C1 [compound 475] | 9.79 |
| COc1nc(-c2cccc(-c3cccc(-c4cnc(CNC[C@@H]5CC6(CC6)C(=O)N5)c(OC)n4)c3Cl)c2Cl)cnc1CNC[C@@H]1CC2(CC2)C(=O)N1 [compound 331] | 9.17 |

P: CNc1nc(-c2cccc(-c3cccc(-c4cnc(CN(C)C)c(NC)n4)c3Cl)c2Cl)cnc1CN(C)C [compound 71]
Q: COc1nc(-c2cccc(-c3cccc(-c4cnc(CNC[C@@H]5C[C@@H](C)C(=O)N5)c(OC)n4)c3Cl)c2Cl)cnc1CNC[C@@H]1C[C@@H](C)C(=O)N1 [compound 326]
R: COc1nc(-c2cccc(-c3cccc(-c4cnc(CNC[C@H]5CCOC5)c(OC)n4)c3Cl)c2Cl)cnc1CNC[C@H]1CCOC1 [compound 579]
S: COc1nc(-c2cccc(-c3cccc(-c4cnc(CN)c(OC)n4)c3Cl)c2Cl)ccc1CNC[C@@H]1CCC(=O)N1 [compound 630]
Arrange items by their pIC50 values in increasing order. Thanks in advance for listing the labels in the requested order.
R, S, Q, P
(R: 9.11, S: 9.36, Q: 9.74, P: 10.09)

###

target: PD-1/PD-L1 (Homo sapiens (Human), UniProt Q9NZQ7); test: PD-1/PD-L1 biochemical protein-protein interaction assay (ALPHA); settings: 0.3 nM His tagged PD-L1, 2.5 nM biotinylated Fc-PD-1, 60 minutes at 25° C., read-out: IC50 PD-L1-PD1
Sequence (Q9NZQ7 19-238): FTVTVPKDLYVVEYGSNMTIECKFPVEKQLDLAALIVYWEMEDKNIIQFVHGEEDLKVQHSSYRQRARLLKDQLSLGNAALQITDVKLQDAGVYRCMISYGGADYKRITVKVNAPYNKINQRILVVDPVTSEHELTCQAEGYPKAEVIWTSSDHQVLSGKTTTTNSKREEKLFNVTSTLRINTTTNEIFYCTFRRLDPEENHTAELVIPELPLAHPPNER
pIC50: −log10 of the molar value.
assay.metric: pIC50

| compound | study.system | data.value |
| --- | --- | --- |
| C#CC1(O)CN(Cc2ncc(-c3cccc(-c4cccc(-c5cnc(CNC[C@@H]6CCC(=O)N6)c(OC)n5)c4Cl)c3Cl)nc2OC)C1 [compound 551] | PD-1/PD-L1 (Homo sapiens (Human), UniProt Q9NZQ7) | 9.33 |

P: COC1CN(Cc2ncc(-c3cccc(-c4cccc(-c5cnc(CN6CC(OC)C6)c(SC)n5)c4Cl)c3Cl)nc2SC)C1 [compound 87]
Q: COc1nc(-c2cccc(-c3cccc(-c4cnc(CNC[C@@H]5CCC(=O)N5)c(OC)n4)c3Cl)c2Cl)cnc1CNCC(=O)NC(C)C [compound 581]
Decide: P or Q , by lowest recorded pIC50. Use the label to indicate which entry you chose.
P

###

target: PD-1/PD-L1 (Homo sapiens (Human), UniProt Q9NZQ7); test: PD-1/PD-L1 biochemical protein-protein interaction assay (ALPHA); details: 0.3 nM His tagged PD-L1, 2.5 nM biotinylated Fc-PD-1, 60 minutes at 25° C., read-out: IC50 PD-L1-PD1
assay.metric: IC50 (nM)

Reference set, count: 4
| compound | unit.label | IC50 |
| --- | --- | --- |
| CNS(=O)(=O)CCNCc1ncc(-c2cccc(-c3cccc(-c4cnc(CNC[C@@H]5CCC(=O)N5)c(OC)n4)c3Cl)c2Cl)nc1OC [compound 572] | nM | 0.064 |
| COc1nc(-c2cccc(-c3cccc(-c4cnc(CNC[C@@H]5CCC(=O)N5)c(OC)n4)c3Cl)c2Cl)cnc1CNCCN1CCCS1(=O)=O [compound 573] | nM | 0.089 |
| COc1nc(-c2cccc(-c3cccc(-c4cnc(CN5CC[C@H](C(=O)O)C5)c(OC)n4)c3Cl)c2Cl)ccc1CNC[C@@H]1CCC(=O)N1 [compound 513] | nM | 0.064 |
| COc1nc(-c2cccc(-c3cccc(-c4cnc(CNC(CO)c5nn[nH]n5)c(OC)n4)c3Cl)c2Cl)cnc1CNC[C@@H]1CCC(=O)N1 (stereo partly shown) [compound 38] | nM | 0.66 |

A: COc1nc(-c2cccc(-c3cccc(-c4cnc(CN5CC[C@@H](CO)C5)c(OC)n4)c3Cl)c2Cl)cnc1CNC[C@@H]1CCC(=O)N1 [compound 627]
B: C#CC1(O)CN(Cc2ncc(-c3cccc(-c4cccc(-c5cnc(CN6CC(O)(C#C)C6)c(OC)n5)c4Cl)c3Cl)nc2OC)C1 [compound 550]
C: COc1nc(-c2cccc(-c3cccc(-c4cnc(CNC[C@@H]5CCC(=O)N5)c(OC)n4)c3Cl)c2Cl)ccc1CNCc1nc(=O)o[nH]1 [compound 161]
Reorder the items by IC50, least to greatest. Labels, ranked as asked.
A, C, B

###

biological target: PD-1/PD-L1 (Homo sapiens (Human)); test: PD-1/PD-L1 biochemical protein-protein interaction assay (ALPHA); settings: 0.3 nM His tagged PD-L1, 2.5 nM biotinylated Fc-PD-1, 60 minutes at 25° C., read-out: IC50 PD-L1-PD1
assay.metric: IC50 (nM)

Below: 5 compounds and their reported IC50.
| compound | assay.metric | unit.label | data.value |
| --- | --- | --- | --- |
| COc1nc(-c2cccc(-c3cccc(-c4cnc(C5=NC[C@H](C)N5)c(OC)n4)c3Cl)c2Cl)ccc1CNC[C@@H]1CCC(=O)N1 | IC50 | nM | 0.064 |
| CCn1cc(CN2CC3(CCC(=O)N3)C2)c2ncc(-c3cccc(-c4cccc(-c5cnc(CN6CC7(CCC(=O)N7)C6)c(OC)n5)c4Cl)c3Cl)nc21 | IC50 | nM | 0.313 |
| COc1nc(-c2cccc(-c3cccc(-c4cnc(CNC[C@H]5NC(=O)[C@@H]6C[C@H]56)c(OC)n4)c3Cl)c2Cl)cnc1CNC[C@H]1NC(=O)[C@@H]2C[C@H]12 | IC50 | nM | 0.358 |
| COc1nc(-c2cccc(-c3cccc(-c4cnc(CN5CC[C@H](O)[C@@H]5C)c(OC)n4)c3Cl)c2Cl)cnc1CNC[C@@H]1CCC(=O)N1 | IC50 | nM | 0.064 |
| COc1nc(-c2cccc(-c3cccc(-c4cnc(CNC[C@H]5CCS(=O)(=O)N5)c(OC)n4)c3Cl)c2Cl)cnc1CNC[C@H]1CCS(=O)(=O)N1 | IC50 | nM | 0.293 |

A: COc1nc(-c2cccc(-c3cccc(-c4cnc(CN5CC(C)(O)C5)c(OC)n4)c3Cl)c2Cl)cnc1CNCCO
B: COc1nc(-c2cccc(-c3cccc(-c4cnc(CN5CC6(CNC(=O)C6)C5)c(OC)n4)c3Cl)c2Cl)ccc1CN1CC2(CNC(=O)C2)C1
C: COc1nc(-c2cccc(-c3cccc(-c4cnc(CNC[C@@H]5CCC(=O)N5)c(OC)n4)c3Cl)c2Cl)cnc1CNCc1ncccc1O
Falling order of IC50, please. List the labels in the requested order.
C, A, B
(C: 0.565 nM, A: 0.285 nM, B: 0.086 nM)

a: COc1nc(-c2cccc(-c3cccc(-c4cnc(CN5CC[C@@H](CNC(C)=O)C5)c(OC)n4)c3Cl)c2Cl)cnc1CN1CC[C@@H](CNC(C)=O)C1
b: COc1nc(-c2cccc(-c3cccc(-c4cnc(CN5CC[C@H](OC)C5)c(OC)n4)c3Cl)c2Cl)cnc1CNC[C@@H]1CCC(=O)N1
Could you tell me which of these two has the smaller IC50 figure? First: a Second: b Give the chosen item's label as your response.
b

A: COc1nc(-c2cccc(-c3cccc(-c4cnc(CN5CC6(CNC(=O)C6)C5)c(OC)n4)c3Cl)c2Cl)cnc1CN1CC(C)(O)C1
B: COc1nc(-c2cccc(-c3cccc(-c4cnc(CN5CC6(CNC(=O)C6)C5)c(OC)n4)c3Cl)c2F)ccc1CN1CC2(CNC(=O)C2)C1
Looking at recorded values for IC50, does A or B come in lower? Your choice should be expressed through its label.
A
